The reported measurements were obtained from patent US20140178394A1.

target under test: T1, HLA-A*0201 HLA class I MHC monomer (iTopia Epitope Discovery System, coated on plate) (human)
T1 construct: Placeholder peptide stripped; also called HLA-A2; MHC class I monomer
experiment: iTopia EDS affinity assay; peptide titration, printed as Affinity (ED50)
property name: log10 EC50 (log10 of the value in µM)
Hello, just confirming the data are log10 of EC50 with units of µM.

Recorded log10 EC50, per entry:
binder="AMLKCLSEG (Synthetic nonapeptide of human nectin4; the range counts on nectin4) [Nectin4 peptide 266 (AMLKCLSEG)]" numeric_result=-0.15
binder="ALLHSKYGL (Synthetic nonapeptide of human nectin4; the range counts on nectin4; also called Pep N° 80) [Nectin4 peptide 80 (ALLHSKYGL)]" numeric_result=0.00
binder="ILHVSFLAE (Synthetic nonapeptide of human nectin4; the range counts on nectin4) [Nectin4 peptide 239 (ILHVSFLAE)]" numeric_result=-0.70
binder="HILHVSFLA (Synthetic nonapeptide of human nectin4; the number is the start position in nectin4 (the range counts on nectin4)) [Nectin4 peptide 238 (HILHVSFLA)]" numeric_result=-1.22

Fill in log10 EC50 for each of the 4 binders listed.
1. LLFCLLVVV (Synthetic nonapeptide of human nectin4; the range counts on nectin4) [Nectin4 peptide 359 (LLFCLLVVV)]
2. VVVGVIAAL (Synthetic nonapeptide of human nectin4; the range counts on nectin4) [Nectin4 peptide 351 (VVVGVIAAL)]
3. GTSDVVTVV (Synthetic nonapeptide of human nectin4; the range counts on nectin4) [Nectin4 peptide 35 (GTSDVVTVV)]
4. VIAALLFCL (Synthetic nonapeptide of human nectin4; the range counts on nectin4) [Nectin4 peptide 355 (VIAALLFCL)]

RESULT:
[-0.30, -1.52, -0.52, -1.52]
